Biological target: UniProt:Q9Y5N1
Assay: H3 Receptor Binding Assay
Details: displacement of 3 nM [3H]R-α-methyl histamine or [3H]Nα-methyl histamine; membranes from guinea pig brain, alternatively recombinant human receptor in HEK-293 cells; 30° C., 30 minutes; read-out: H3 Ave Ki
assay-endpoint: pKi
Reminder that pKi means the negative base-10 logarithm of the concentration expressed in mol/L.

Please review the following examples before continuing.
C[C@@H]1CCCN1CCc1cn2cc(-c3cnc(N)cn3)ccc2n1 ... 6.61
CC(=O)Nc1ccc(-c2ccc3nc(CCN4CCC[C@H]4C)cn3c2)cc1 ... 7.17
CCOc1cccc(-c2ccn3cc(CCN4CCC[C@H]4C)nc3c2)c1 ... 7.15
C[C@@H]1CCCN1CCc1cn2cc(-c3ccc(O)cc3)ccc2n1 ... 7.19
C[C@@H]1CCCN1CCc1cn2cc(-c3ccc(F)c(C#N)c3)ccc2n1 ... 8.40

-- ask Any idea what pKi came out for C[C@@H]1CCCN1CCc1cn2cc(-c3cncc(C#N)c3)ccc2n1 on UniProt:Q9Y5N1?
-- reply 7.41

-- ask Same again, this time with C[C@@H]1CCCN1CCc1cn2cc(-c3ccc(C#N)cc3)ccc2n1
-- reply 7.57
